Overview of recorded viability, T/C for various compounds
# Tested on: NCI-H1417 complex spheroids, growth % test/control
# measurement_notes: Anticancer human tumor NCI-H1417 cell line growth inhibition [Asc];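 further: spheroids exposed to compounds for 7 days; 100% = DMSO vehicle control wells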
# settings: second compound 0.316 µM; first compound 0.01 µM; active compounds read low

{"compound": "Cn1ncnc1[C@H]1c2n[nH]c(=O)c3cc(F)cc(c23)N[C@@H]1c1ccc(F)cc1 + CNC(C)C(=O)NC1CN(S(=O)(=O)c2cccc(S(=O)(=O)N3CCC4CCC(C(=O)NC(c5ccccc5)c5ccccc5)N4C(=O)C(NC(=O)C(C)NC)C3)c2)CCC2CCC(C(=O)NC(c3ccccc3)c3ccccc3)N2C1=O", "study_system": "NCI-H1417 complex spheroids, growth % test/control", "viability, T/C, %": 78.5}
{"compound": "NC1CCC(NC2CC2c2ccccc2)CC1 (stereo not drawn) + CNC(C)C(=O)NC1CN(S(=O)(=O)c2cccc(S(=O)(=O)N3CCC4CCC(C(=O)NC(c5ccccc5)c5ccccc5)N4C(=O)C(NC(=O)C(C)NC)C3)c2)CCC2CCC(C(=O)NC(c3ccccc3)c3ccccc3)N2C1=O", "study_system": "NCI-H1417 complex spheroids, growth % test/control", "viability, T/C, %": 80.8}
{"compound": "NC1CCC(NC2CC2c2ccccc2)CC1 (stereo not drawn) + Cc1c(S(C)(=O)=O)c(-c2cc(F)cc(N3CCN(c4ccc(NS(=O)(=O)c5ccc(NC(CCN6CCC(C(=O)OCCCP(=O)(O)O)CC6)CSc6ccccc6)c(S(=O)(=O)C(F)(F)F)c5)cc4)CC3)c2)c(-c2ccc(Cl)cc2)n1C(C)C", "study_system": "NCI-H1417 complex spheroids, growth % test/control", "viability, T/C, %": 40.1}

====

# Tested on: NCI-H1417 complex spheroids, growth % test/control
# measurement_notes: Anticancer human tumor NCI-H1417 cell line growth inhibition [Asc];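 further: spheroids exposed to compounds for 7 days; 100% = DMSO vehicle control wells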
# settings: second compound 0.3 µM; first compound 1 µM; active compounds read low

{"compound": "COc1c(OCCCN2CCOCC2)ccc2c3n(c(=NC(=O)c4cnc(N)nc4)nc12)CCN3 + CCN1C(C(=O)NC23CCC(C(=O)O)(CC2)CC3)C(c2cccc(Cl)c2F)C2(C(=O)Nc3cc(Cl)ccc32)C12CCCCC2", "study_system": "NCI-H1417 complex spheroids, growth % test/control", "viability, T/C": "51.5%"}
{"compound": "C=CC(=O)N1CCN(c2nc(=O)n(-c3c(C)ccnc3C(C)C)c3nc(-c4c(O)cccc4F)c(F)cc23)C(C)C1 (centres undefined) + CCN1C(C(=O)NC23CCC(C(=O)O)(CC2)CC3)C(c2cccc(Cl)c2F)C2(C(=O)Nc3cc(Cl)ccc32)C12CCCCC2", "study_system": "NCI-H1417 complex spheroids, growth % test/control", "viability, T/C": "94.3%"}
{"compound": "C#Cc1c(F)ccc2cc(O)cc(-c3ncc4c(N5CC6CCC(C5)N6)nc(OCC56CCCN5CC(F)C6)nc4c3F)c12 (centres undefined) + CCN1C(C(=O)NC23CCC(C(=O)O)(CC2)CC3)C(c2cccc(Cl)c2F)C2(C(=O)Nc3cc(Cl)ccc32)C12CCCCC2", "study_system": "NCI-H1417 complex spheroids, growth % test/control", "viability, T/C": "105%"}
{"compound": "O=C(c1cc(Cc2n[nH]c(=O)c3ccccc23)ccc1F)N1CCN(C(=O)C2CC2)CC1 + CCN1C(C(=O)NC23CCC(C(=O)O)(CC2)CC3)C(c2cccc(Cl)c2F)C2(C(=O)Nc3cc(Cl)ccc32)C12CCCCC2", "study_system": "NCI-H1417 complex spheroids, growth % test/control", "viability, T/C": "76.8%"}
